Target: AKT2 (human) (UniProt P31751)
Sequence (P31751 whole entry, looked up): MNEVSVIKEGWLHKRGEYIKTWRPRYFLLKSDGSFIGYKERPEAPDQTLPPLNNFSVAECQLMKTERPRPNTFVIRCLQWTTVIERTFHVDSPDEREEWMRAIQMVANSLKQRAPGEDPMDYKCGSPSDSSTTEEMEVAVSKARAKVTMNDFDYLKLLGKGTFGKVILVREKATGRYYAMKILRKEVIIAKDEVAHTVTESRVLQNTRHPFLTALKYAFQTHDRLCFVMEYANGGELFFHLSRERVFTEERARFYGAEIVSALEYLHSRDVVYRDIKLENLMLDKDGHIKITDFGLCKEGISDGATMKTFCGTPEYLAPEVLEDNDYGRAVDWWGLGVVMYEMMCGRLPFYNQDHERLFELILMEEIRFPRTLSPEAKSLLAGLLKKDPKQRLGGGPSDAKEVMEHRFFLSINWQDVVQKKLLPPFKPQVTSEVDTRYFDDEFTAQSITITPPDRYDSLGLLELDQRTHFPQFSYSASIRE
Test: KINOMEscan competition binding
Conditions: compound 10.0 µM
Reported kinase still bound, per cent of control values follow for various molecules
Measured Parameter: kinase still bound, per cent of control (%)

| Cpd Smiles | Measured Parameter | Recorded Number |
| --- | --- | --- |
| COc1cc(C(=O)N2CCC(N3CCN(C)CC3)CC2)ccc1Nc1ncc2c(n1)N(C)c1ccccc1C(=O)N2C | kinase still bound, per cent of control | 100 |
| C=CC(=O)Nc1ccc(CN(C(=O)Nc2c(Cl)c(OC)cc(OC)c2Cl)c2cc(Nc3ccc(N4CCN(C)CC4)cc3)ncn2)cc1 | kinase still bound, per cent of control | 100 |
| COc1ccc(N(C(=O)Oc2c(C)cccc2C)c2ccnc(Nc3ccc(N4CCN(C)CC4)cc3)n2)c(OC)c1 | kinase still bound, per cent of control | 100 |
| CNC(=O)c1cc(Oc2ccc(NC(=O)Nc3ccc(Cl)c(C(F)(F)F)c3)cc2)ccn1 | kinase still bound, per cent of control | 70 |
| CS(=O)(=O)N1CCN(Cc2cc3nc(-c4cccc5[nH]ncc45)nc(N4CCOCC4)c3s2)CC1 | kinase still bound, per cent of control | 100 |
| CCN(CC)CCCCNc1ncc2cc(-c3cc(OC)cc(OC)c3)c(NC(=O)NC(C)(C)C)nc2n1 | kinase still bound, per cent of control | 100 |
| NC(=O)Nc1cc(-c2cccc(F)c2)sc1C(=O)N[C@@H]1CCCNC1 | kinase still bound, per cent of control | 60 |
| COc1cc(N2CCN(C)CC2)ccc1Nc1ncc2c(n1)N(C)c1ccccc1C(=O)N2C | kinase still bound, per cent of control | 100 |
| COc1cc2ncnc(-n3nc(-c4ccccn4)nc3N)c2cc1OC | kinase still bound, per cent of control | 42 |
| CN(C)C/C=C/C(=O)Nc1ccc(C(=O)Nc2cccc(Nc3nccc(-c4cccnc4)n3)c2)cc1 | kinase still bound, per cent of control | 100 |
| C=CC(=O)Nc1cc(-n2c(=O)ccc3cnc4ccc(-c5cn[nH]c5)cc4c32)ccc1C | kinase still bound, per cent of control | 87 |
| C[C@@H](Oc1cc(-c2cnn(C3CCNCC3)c2)cnc1N)c1c(Cl)ccc(F)c1Cl | kinase still bound, per cent of control | 100 |
| O=C1NC(=O)/C(=C/c2ccc3nccc(-c4ccncc4)c3c2)S1 | kinase still bound, per cent of control | 100 |
| N#CCNC(=O)c1ccc(-c2ccnc(Nc3ccc(N4CCOCC4)cc3)n2)cc1 | kinase still bound, per cent of control | 76 |
| CCN1CCN(C(=O)Cc2ccc(Nc3ncc(F)c(Nc4ccc(C(=O)Nc5ccccc5Cl)cc4)n3)cc2)CC1 | kinase still bound, per cent of control | 95 |
| COc1cc2ncn(-c3cc(OCc4ccccc4C(F)(F)F)c(C(N)=O)s3)c2cc1OC | kinase still bound, per cent of control | 100 |
| COCC(=O)NC/C=C/c1ccc2ncnc(Nc3ccc(Oc4ccc(C)nc4)c(C)c3)c2c1 | kinase still bound, per cent of control | 100 |
| CCN(CC)CCCCNc1ncc2c(n1)N(C)C(=O)N(c1c(Cl)c(OC)cc(OC)c1Cl)C2 | kinase still bound, per cent of control | 100 |
| O=c1cc(N2CCOCC2)oc2c(-c3cccc4c3sc3ccccc34)cccc12 | kinase still bound, per cent of control | 51 |
| O=C(Nc1cccc(Nc2ncc(Br)c(NCCc3cnc[nH]3)n2)c1)N1CCCC1 | kinase still bound, per cent of control | 100 |
| CNC(=O)c1ccc(Nc2cc(Nc3ccccc3S(=O)(=O)C(C)C)c3cc[nH]c3n2)nc1 | kinase still bound, per cent of control | 100 |
